- System: MCF7
- test-protocol: Antiproliferative activity against HER2-negative human MCF7 cells assessed as inhibition of cell growth incubated for 72 hrs by SRB assay
- Type: functional, cell-based
- test-context: MCF7, 72 h
pIC50: −log10 of the molar value.

compound: C=CC(C)(C)c1c2c(c(O)c3c1OC(C)(C)[C@H]1CCC(C)=C[C@@H]31)C(=O)C1=C[C@@H]3C[C@H]4C(C)(C)O[C@@](C/C=C(/C)C(=O)O)(C3=O)[C@@]14O2
qualifier-operator: =
pIC50: 5.49
--
compound: COc1cc(-c2ccc3c(c2)C=CC(C)(C)O3)cc(O)c1O
qualifier-operator: <
pIC50: 5.00
--
compound: C=CC(C)(C)c1c2c(c(O)c3c1O[C@]14[C@H](C3=O)[C@@H](OC)[C@H]3C[C@H]1C(C)(C)O[C@@]4(C/C=C(\C)C(=O)O)C3=O)C=CC(C)(C)O2
qualifier-operator: =
pIC50: 4.98
--
compound: C=CC(C)(C)c1c2c(c(O)c3c1O[C@]14C(=C[C@@H]5C[C@H]1C(C)(C)O[C@@]4(C/C=C(\C)C(=O)O)C5=O)C3=O)C=CC(C)(C)O2
qualifier-operator: =
pIC50: 5.89
--
compound: C=CC(C)(C)c1c2c(c(O)c3c1OC(C)(C)[C@H]1CCC(C)=C[C@@H]31)C(=O)[C@@H]1[C@@H](O)[C@@H]3C[C@H]4C(C)(C)O[C@@](C/C=C(\C)C(=O)O)(C3=O)[C@@]14O2
qualifier-operator: =
pIC50: 5.17
--
compound: COc1cc(-c2ccc(O)c(CCC(C)CO)c2)cc(O)c1O (stereo not given)
qualifier-operator: <
pIC50: 5.00
--
compound: C=CC(C)(C)c1c2c(c(O)c3c1OC(C)(C)[C@H]1CCC(C)=C[C@@H]31)C(=O)[C@@H]1[C@@H](OC)[C@@H]3C[C@H]4C(C)(C)O[C@@](C/C=C(\C)C(=O)O)(C3=O)[C@@]14O2
qualifier-operator: =
pIC50: 5.19
--
compound: COc1c(O)c(O)cc(-c2ccccc2)c1CC=C(C)C
qualifier-operator: <
pIC50: 5.00
--
compound: C=CC(C)(C)c1c2c(c(O)c3c1OC(C)(C)[C@H]1CCC(C)=C[C@@H]31)C(=O)C1=C[C@@H]3C[C@H]4C(C)(C)O[C@@](C/C=C(\C)C(=O)O)(C3=O)[C@@]14O2
qualifier-operator: =
pIC50: 5.25
--
compound: COc1cc(-c2ccc(O)c(C/C=C(/C)CO)c2)cc(O)c1O
qualifier-operator: <
pIC50: 5.00

* * *

- Tested on: KB
- test-protocol: Antiproliferative activity against human KB cells assessed as inhibition of cell growth incubated for 72 hrs by SRB assay
- Assay type: functional, cell-based

compound: COc1cc(-c2ccc(O)c(CCC(C)CO)c2)cc(O)c1O (centres undefined)
target-system: KB
IC50: > 10 µM
--
compound: COc1cc(-c2ccc(O)c(C/C=C(/C)CO)c2)cc(O)c1O
target-system: KB
IC50: > 10 µM
--
compound: C=CC(C)(C)c1c2c(c(O)c3c1OC(C)(C)[C@H]1CCC(C)=C[C@@H]31)C(=O)[C@@H]1[C@@H](O)[C@@H]3C[C@H]4C(C)(C)O[C@@](C/C=C(\C)C(=O)O)(C3=O)[C@@]14O2
target-system: KB
IC50: 5.3 µM
--
compound: COc1c(O)c(O)cc(-c2ccccc2)c1CC=C(C)C
target-system: KB
IC50: > 10 µM
